FYI, the data here is from PubChem BioAssay (NCI).

Test system: K-562 leukemia
test.details: NCI-60 one-dose screen, 48 h (100 = growth as untreated, 0 = no growth, -100 = all killed)
condition.parameters: 10 µM
Compounds without any hit were thinned out: in the full panel of roughly 83,000, 20% have a hit.
Item-by-item account of growth

>  <compound>
CCCCC(CCCCCC(CCCC)NCc1ccc2c(c1)OCO2)NCc1ccc2c(c1)OCO2 (stereo not given)

>  <target.desc>
K-562 leukemia

>  <growth (%)>
-72.3

$$$$
>  <compound>
c1ccc(CSc2nnc3c4c5c(sc4nc(-c4cccnc4)n23)CCCCCC5)cc1

>  <target.desc>
K-562 leukemia

>  <growth (%)>
21.7

$$$$
>  <compound>
CCCN(CCC)CCC(O)c1cc2c(c3ccccc13)CCCC2 (stereo not given)

>  <target.desc>
K-562 leukemia

>  <growth (%)>
82.5

$$$$
>  <compound>
COc1ccc(S(=O)(=O)NCCCNc2nccc(-c3c(-c4ccc(F)cc4)nc4sccn34)n2)cc1

>  <target.desc>
K-562 leukemia

>  <growth (%)>
17.6

$$$$
>  <compound>
COc1cc(-c2cc(/C=C/C(=O)c3ccc(F)c(F)c3)[nH]n2)cc(OC)c1OC

>  <target.desc>
K-562 leukemia

>  <growth (%)>
29.8

$$$$
>  <compound>
O=C(CSSCC(=O)c1ccc(Cl)cc1)c1ccc(Cl)cc1

>  <target.desc>
K-562 leukemia

>  <growth (%)>
52.9

$$$$
>  <compound>
CCOCC(=O)C(C#N)c1ccc(Cl)c(Cl)c1 (stereo not given)

>  <target.desc>
K-562 leukemia

>  <growth (%)>
94.6

$$$$
>  <compound>
NC(=S)N=Nc1c(O)c2ccccc2c2ccccc12

>  <target.desc>
K-562 leukemia

>  <growth (%)>
42.2

$$$$
>  <compound>
C#Cc1ccc(-n2c(/C=C/c3ccc(Cl)c(F)c3)nc3ncccc3c2=O)cc1

>  <target.desc>
K-562 leukemia

>  <growth (%)>
-8.5

$$$$
>  <compound>
CCN1CCC2(CC1)OC(c1ccccc1)C(c1ccccc1)O2 (stereo not given)

>  <target.desc>
K-562 leukemia

>  <growth (%)>
88.2

$$$$
>  <compound>
COc1ccc(OC)c(/C=C/c2nc(SC)n(-c3ccc(Cl)cc3)n2)c1

>  <target.desc>
K-562 leukemia

>  <growth (%)>
30.7

$$$$
>  <compound>
Cc1cc(C)c(CCc2cc(C)c(C)cc2C)cc1C

>  <target.desc>
K-562 leukemia

>  <growth (%)>
94.8

$$$$
>  <compound>
CCC(=O)N1C/C(=C/c2ccc(Cl)cc2)C(=O)/C(=C/c2ccc(Cl)cc2)C1

>  <target.desc>
K-562 leukemia

>  <growth (%)>
1.74

$$$$
>  <compound>
COC(=O)[C@@H]1[C@H](O)[C@H](C)[C@H](O)[C@@](C)(O)/C=C\C=C(C)C(=O)Nc2c(C)c(OC(C)=O)c3c(c2O)C(=O)C(C)=C2OCOC(=C23)C(C)=C[C@@](C)(O)[C@H](O)[C@@H](C)[C@H]1OC(C)=O

>  <target.desc>
K-562 leukemia

>  <growth (%)>
89

$$$$
>  <compound>
Cc1cc(=O)n2nnc3c4ccccc4ccc3n12

>  <target.desc>
K-562 leukemia

>  <growth (%)>
24.7

$$$$
>  <compound>
Nc1ncn(C2OC(CO)C(O)C2O)c(=O)n1 (stereo not given)

>  <target.desc>
K-562 leukemia

>  <growth (%)>
-24

$$$$
>  <compound>
C[N+](C)(C)c1ncnc2nc[nH]c12

>  <target.desc>
K-562 leukemia

>  <growth (%)>
73.3

$$$$
>  <compound>
CC1CN(Cc2ccccc2)C(=O)NC1=O (stereo not given)

>  <target.desc>
K-562 leukemia

>  <growth (%)>
108

$$$$
>  <compound>
O=C(O)C(SC(C(=O)O)c1ccccc1)c1ccccc1 (stereo not given)

>  <target.desc>
K-562 leukemia

>  <growth (%)>
98.6

$$$$
>  <compound>
COc1ccc(-c2nc3ncccn3c2-c2nnc(-c3ccc(F)cc3)o2)cc1

>  <target.desc>
K-562 leukemia

>  <growth (%)>
87.7

$$$$
>  <compound>
COc1cc(-c2cc(/C=C3\C(=O)Nc4ccccc43)[nH]n2)cc(OC)c1OC

>  <target.desc>
K-562 leukemia

>  <growth (%)>
31.7

$$$$
>  <compound>
COc1cc(NC(=O)c2sc3nc4c(cc3c2N)C(O)CCC4)cc(OC)c1 (stereo not given)

>  <target.desc>
K-562 leukemia

>  <growth (%)>
27.9

$$$$
>  <compound>
Cc1ccc(-c2nc(/C=C3/C(=O)N(C)c4ccc(F)cc43)c3ccccn23)cc1

>  <target.desc>
K-562 leukemia

>  <growth (%)>
107

$$$$
>  <compound>
O=C(N/N=C/c1ccccc1)C(Oc1ccccc1)c1ccccc1 (stereo not given)

>  <target.desc>
K-562 leukemia

>  <growth (%)>
79

$$$$
>  <compound>
CSc1cc(SC)ncn1

>  <target.desc>
K-562 leukemia

>  <growth (%)>
96.6

$$$$
>  <compound>
O=S(=O)(Nc1ccccn1)c1ccc(N=Nc2ccc(O)c3ncccc23)cc1

>  <target.desc>
K-562 leukemia

>  <growth (%)>
6.51

$$$$
>  <compound>
CN(C)c1ccc(N=C2C=CC(=O)c3ccccc32)cc1

>  <target.desc>
K-562 leukemia

>  <growth (%)>
69.8

$$$$
>  <compound>
Cc1cccc(Cl)c1NC(=O)c1ccc2nc(NC(=O)NC3CCN(C)CC3)sc2c1

>  <target.desc>
K-562 leukemia

>  <growth (%)>
7.86

$$$$
>  <compound>
CCCC1(CC(=O)O)OCCc2c1[nH]c1ccccc21 (stereo not given)

>  <target.desc>
K-562 leukemia

>  <growth (%)>
156

$$$$
>  <compound>
CNc1ccc(CSc2ccc(C)cc2)cc1

>  <target.desc>
K-562 leukemia

>  <growth (%)>
119

$$$$
>  <compound>
FC(F)(F)c1ccc(-c2cnc(-n3cc(COCCN4CCCCC4)nn3)nc2NC2CCCCCC2)cc1

>  <target.desc>
K-562 leukemia

>  <growth (%)>
-48.4

$$$$
>  <compound>
COc1ccc(-c2nn(-c3cccc(NC(=O)Nc4ccc(Cl)c(C(F)(F)F)c4)c3)cc2-c2ccncc2)cc1Cl

>  <target.desc>
K-562 leukemia

>  <growth (%)>
15.4

$$$$
>  <compound>
COc1cc(-c2cc(-c3cc4c([nH]c5ccccc54)c(-c4cc(OC)c(OC)c(OC)c4)n3)cc(-c3ccccc3)n2)cc(OC)c1OC

>  <target.desc>
K-562 leukemia

>  <growth (%)>
16.7

$$$$
>  <compound>
O=C(Nc1ccc(OS(=O)(=O)c2ccccc2)cc1)C12CC3CC(CC(C3)C1)C2

>  <target.desc>
K-562 leukemia

>  <growth (%)>
13

$$$$
>  <compound>
FC(F)(F)c1ccc(-c2cnc(Cl)nc2N2CCC3(CC2)OCCO3)cc1

>  <target.desc>
K-562 leukemia

>  <growth (%)>
93.2

$$$$
